In this section we review reported OD values for a set of binders.
target: soluble 1999 H1 HA (seasonal 1999 H1N1) (Influenza A virus (H1N1, 1999)); experiment: ELISA, supernate; also: test concentration or dose not given here

BINDER: mAb 2K11 (antibody, V domains shown) VH: EVQLVESGGGLVQPGGSLRLSCVASTFSLINYWMTWVRQAPGKGLEWVANIKQDGFEKYYVDSVKGRFTISRDNAKNSLYLQMNSLRVEDTAVYYCARQGSYADTYFYHYGMDVWGQGTTVTVS VL: QSALTQPPSVSGAPGQRVTISCTGSSSNIGAGYDAYWYQQLPGTAPKLLIYGNSNRLSGVPDRFSASKSGTSASLAITGLQAEDEADYYCQSYDSSLSIFGGGTKLTVLR
UNITS OF MEASURE: OD
OD: 0.518

BINDER: mAb 3E22 (antibody, V domains shown) VH: EVQLVESGAEVKKPGASVKVSCKASGYTFSRYYIHWVRQAPGQELEWMGWINPDSGDTNYAQKFRGRVTMARDTSISTVYMELNSLRYDDTAVYFCARIIWSSSGMDVWGQGTTVTVS VL: QSALTQPASVSGSPGQSITISCTGTSSDVGSYNLVSWYQQHPGKAPKLMIYEVSKRPSGVSNRFSGSKSGNTASLTISGLQAEDEADYYCHLYVGSSNWVFGGGTKLAVLG
UNITS OF MEASURE: OD
OD: 2.06

BINDER: mAb 2O10 (antibody, V domains shown) VH: EVQLVESGGGLVQPGGSLRLSCAASGFTFNSYWMTWVRQAPGKGLEWVANINQDGSEKFFVDSVKGRFTISRDNAKTSLYLQMNSLRVEDTAVYYCAREGAPYDTYYYYYAMDVWGQGTTVTVS VL: QSVLTQPPSVSGAPGQRVTISCTGTSSNIGAGYGVHWYQQLPGAAPKLLVYGNSNRPSGVPDRFSGSKSGTSASLAITGLQAEDEADYYCQSYDISLSGSNVFGTGTKVTVLG
UNITS OF MEASURE: OD
OD: 0.872

BINDER: mAb 10E15 (antibody, V domains shown) VH: EVQLLESGGGVVQPGRSLRLSCAASGFTFRTYGMHWVRQAPGKGLEWVAVISHDGNLKYYGGSVKGRFTISRDNSKNALYLQMNSLRVDDTALYYCARGIGITDAFDIRGQGTMVVVS VL: QSVLTQPPSVSAAPGQKVTISCSGSSSNIGKNYVSWYQQLPGTAPKLLIYDNDKRPSGIPDRFSGSKSGTSATLGITGLQTGDEADYHCGAWDSSLNGGVFGGGTKVTVLG
UNITS OF MEASURE: OD
OD: 0.514
